Reference source: ChEMBL document CHEMBL4627311

molecular target: Sterol 14-alpha demethylase (Trypanosoma cruzi (strain CL Brener)); assay: Inhibition of Trypanosoma cruzi CYP51
Sequence (Q7Z1V1 whole entry): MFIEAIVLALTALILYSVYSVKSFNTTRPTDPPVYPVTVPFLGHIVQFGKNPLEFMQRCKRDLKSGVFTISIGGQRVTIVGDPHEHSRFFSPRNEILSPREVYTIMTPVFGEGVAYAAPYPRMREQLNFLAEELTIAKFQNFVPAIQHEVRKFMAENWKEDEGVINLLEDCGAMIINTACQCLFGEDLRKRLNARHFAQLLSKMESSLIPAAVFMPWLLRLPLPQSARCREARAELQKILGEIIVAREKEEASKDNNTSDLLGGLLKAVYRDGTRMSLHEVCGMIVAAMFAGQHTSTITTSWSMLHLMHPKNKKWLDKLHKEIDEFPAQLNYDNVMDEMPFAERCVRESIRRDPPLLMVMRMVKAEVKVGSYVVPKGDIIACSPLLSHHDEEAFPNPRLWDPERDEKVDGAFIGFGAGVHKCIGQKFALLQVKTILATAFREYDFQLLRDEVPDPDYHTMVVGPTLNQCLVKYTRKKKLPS
pIC50: −log10 of the molar value.
readout.type: pIC50

>  <compound>
CCC(=O)CCCCCC(Oc1ccc2ccccc2c1)c1ncc(Cc2ccncc2)[nH]1 (stereo in doubt; 34)

>  <recorded.value>
7.39

$$$$
>  <compound>
CCC(=O)CCCCCC(OCc1ccncc1)c1ncc(-c2ccc3ccccc3c2)o1 (stereo unspecified)

>  <recorded.value>
7.28

$$$$
>  <compound>
CCC(=O)CCCCCC(Oc1ccc2ccccc2c1)c1ncc(Cc2ccncc2)[nH]1 (stereo in doubt; 11)

>  <recorded.value>
7.28

$$$$

P. CC(OCc1ccncc1)c1ncc(-c2ccc3ccccc3c2)[nH]1 (stereo unspecified)
Q. CCC(=O)CCCCCC(Oc1ccc2ccccc2c1)c1ncc(Cc2ccncc2)[nH]1 (stereo in doubt; 35)
R. CCC(=O)CCCCCC(Oc1ccc2ccccc2c1)c1ncc(Cc2ccccc2)[nH]1 (stereo unspecified)
Give the ascending ranking of the items by reported pIC50. Submit the labels in the order that the ranking request calls for.
R, P, Q
(R: 5.54, P: 7.11, Q: 7.47)

* * *

tested on: Trypanosoma cruzi; assay: Antitrypanosomal activity against Trypanosoma cruzi; assay type: functional, organism-based
pEC50: −log10 of the molar value.
readout.type: pEC50

a. CCC(=O)CCCCCC(Oc1cc2ccccc2nc1OC)c1ncc(Cc2ccncc2)[nH]1 (stereo not drawn)
b. CC1CS(=O)(=O)CCN1/N=C/c1ccc([N+](=O)[O-])o1 (stereo not drawn) [NIFURTIMOX]
Lab notebook, comparison: a versus b , higher pEC50 goes to which? // output: label of the selected item
a
(a: 5.70, b: 5.10)
